Entry source: paper PMC12486805

assay.comment: in vitro
experimental.parameters: mouse, microsomes, pH 7.4
Where a SMILES comes first, the peptide text is derived from it. [ ]: non-standard residue; d: D form. The star is where a group is joined. d(aIle) = CC[C@H](C)[C@@H](N)C(=O)O; X1 = CC[C@H](C)CCCCC(=O)*; dDab = NCC[C@@H](N)C(=O)O; Dab = NCC[C@H](N)C(=O)O
quantity.kind: remaining at 0.5 h (%)
Just the number in %, nothing appended.

I am curious: what remaining at 0.5 h value has been reported for CC[C@H](C)CCCCC(=O)NCC(=O)N[C@H](CCN)C(=O)NCC(=O)N[C@H](CO)C(=O)N[C@H](Cc1c[nH]c2ccccc12)C(=O)N[C@@H](CO)C(=O)N[C@@H](CCN)C(=O)N[C@H](CCN)C(=O)N[C@H](C(=O)N[C@@H](CCC(=O)O)C(=O)N[C@H](C(=O)N[C@@H](C(=O)N[C@@H](CO)C(=O)O)[C@@H](C)CC)[C@@H](C)CC)[C@@H](C)CC [Tridecaptin M, tridecaptin M] (X1-G[dDab]G[dS][dW]S[Dab][dDab]IEI[d(aIle)]S-OH) ?
83.8

---

tested.target: hERG channel (Homo sapiens)
Construct: expressed in transfected cells; host or cells: HEK293
assay.comment: hERG channel inhibition, patch clamp on HEK293 cells expressing hERG
Type: cell-based
experimental.parameters: human, HEK293 cells expressing hERG, pH 7.4; 0.3 µM
Where a SMILES comes first, the peptide text is derived from it. [ ]: non-standard residue; d: D form. The star is where a group is joined. d(aIle) = CC[C@H](C)[C@@H](N)C(=O)O; X1 = CC[C@H](C)CCCCC(=O)*; dDab = NCC[C@@H](N)C(=O)O; Dab = NCC[C@H](N)C(=O)O
quantity.kind: inhibition at 0.3 µM (%)
Numbers only; they are read as %.

Item: CC[C@H](C)CCCCC(=O)NCC(=O)N[C@H](CCN)C(=O)NCC(=O)N[C@H](CO)C(=O)N[C@H](Cc1c[nH]c2ccccc12)C(=O)N[C@@H](CO)C(=O)N[C@@H](CCN)C(=O)N[C@H](CCN)C(=O)N[C@H](C(=O)N[C@@H](CCC(=O)O)C(=O)N[C@H](C(=O)N[C@@H](C(=O)N[C@@H](CO)C(=O)O)[C@@H](C)CC)[C@@H](C)CC)[C@@H](C)CC [Tridecaptin M, tridecaptin M] (X1-G[dDab]G[dS][dW]S[Dab][dDab]IEI[d(aIle)]S-OH) Test system: hERG channel (Homo sapiens) Read-out: inhibition at 0.3 µM Value: ?
-5.86

---

assay.comment: in vivo
experimental.parameters: male, Sprague-Dawley, rat, plasma, sc, 5 mg/kg, T1/2, subcutaneous, 5 mg/kg b.w.
Where a SMILES comes first, the peptide text is derived from it. [ ]: non-standard residue; d: D form. The star is where a group is joined. d(aIle) = CC[C@H](C)[C@@H](N)C(=O)O; X1 = CC[C@H](C)CCCCC(=O)*; dDab = NCC[C@@H](N)C(=O)O; Dab = NCC[C@H](N)C(=O)O
quantity.kind: half-life
Quote the value and follow it with the unit of measurement.

half-life lookup needed for CC[C@H](C)CCCCC(=O)NCC(=O)N[C@H](CCN)C(=O)NCC(=O)N[C@H](CO)C(=O)N[C@H](Cc1c[nH]c2ccccc12)C(=O)N[C@@H](CO)C(=O)N[C@@H](CCN)C(=O)N[C@H](CCN)C(=O)N[C@H](C(=O)N[C@@H](CCC(=O)O)C(=O)N[C@H](C(=O)N[C@@H](C(=O)N[C@@H](CO)C(=O)O)[C@@H](C)CC)[C@@H](C)CC)[C@@H](C)CC [Tridecaptin M, tridecaptin M] (X1-G[dDab]G[dS][dW]S[Dab][dDab]IEI[d(aIle)]S-OH) , thanks.
8.81 h

---

tested.target: hERG channel (Homo sapiens, UniProt Q12809)
Construct: expressed in transfected cells; host or cells: HEK293
Sequence (Q12809 whole entry): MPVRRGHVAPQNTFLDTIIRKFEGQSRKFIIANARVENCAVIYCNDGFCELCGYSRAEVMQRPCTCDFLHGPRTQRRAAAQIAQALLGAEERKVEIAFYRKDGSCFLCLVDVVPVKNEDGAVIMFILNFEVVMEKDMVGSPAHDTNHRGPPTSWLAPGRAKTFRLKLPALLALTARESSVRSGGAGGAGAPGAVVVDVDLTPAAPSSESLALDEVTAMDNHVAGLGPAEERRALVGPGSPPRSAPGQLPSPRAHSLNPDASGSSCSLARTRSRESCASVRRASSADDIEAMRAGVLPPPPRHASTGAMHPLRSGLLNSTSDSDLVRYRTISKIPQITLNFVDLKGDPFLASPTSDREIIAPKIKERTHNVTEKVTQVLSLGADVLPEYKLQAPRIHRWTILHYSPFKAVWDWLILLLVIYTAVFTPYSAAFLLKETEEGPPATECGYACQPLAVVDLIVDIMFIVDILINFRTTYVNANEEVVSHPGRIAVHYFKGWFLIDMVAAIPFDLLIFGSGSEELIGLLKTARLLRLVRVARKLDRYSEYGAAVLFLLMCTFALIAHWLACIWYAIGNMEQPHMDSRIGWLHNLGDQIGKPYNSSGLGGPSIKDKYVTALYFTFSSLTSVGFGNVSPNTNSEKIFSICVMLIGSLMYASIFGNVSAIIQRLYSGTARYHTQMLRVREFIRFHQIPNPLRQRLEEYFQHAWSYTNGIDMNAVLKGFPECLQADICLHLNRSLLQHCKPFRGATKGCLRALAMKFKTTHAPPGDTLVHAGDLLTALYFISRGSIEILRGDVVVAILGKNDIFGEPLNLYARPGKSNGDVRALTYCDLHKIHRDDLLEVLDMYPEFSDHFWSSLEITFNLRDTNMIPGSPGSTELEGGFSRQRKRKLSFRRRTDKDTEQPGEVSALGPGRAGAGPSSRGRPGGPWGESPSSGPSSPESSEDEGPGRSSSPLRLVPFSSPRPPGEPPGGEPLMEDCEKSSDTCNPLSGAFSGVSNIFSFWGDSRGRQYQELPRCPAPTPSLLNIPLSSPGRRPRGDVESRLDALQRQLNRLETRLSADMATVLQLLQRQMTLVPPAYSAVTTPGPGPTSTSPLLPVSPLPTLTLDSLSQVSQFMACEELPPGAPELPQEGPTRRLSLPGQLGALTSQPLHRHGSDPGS
assay.comment: hERG channel inhibition, patch clamp on HEK293 cells expressing hERG
Assay type: cell-based
experimental.parameters: human, HEK293 cells expressing hERG, pH 7.4; 10 µM
Where a SMILES comes first, the peptide text is derived from it. [ ]: non-standard residue; d: D form. The star is where a group is joined. d(aIle) = CC[C@H](C)[C@@H](N)C(=O)O; X1 = CC[C@H](C)CCCCC(=O)*; dDab = NCC[C@@H](N)C(=O)O; Dab = NCC[C@H](N)C(=O)O
quantity.kind: inhibition at 10 µM (%)
Output spec: scalar in %, unitless text.

Which inhibition at 10 µM is reported for this molecule? CC[C@H](C)CCCCC(=O)NCC(=O)N[C@H](CCN)C(=O)NCC(=O)N[C@H](CO)C(=O)N[C@H](Cc1c[nH]c2ccccc12)C(=O)N[C@@H](CO)C(=O)N[C@@H](CCN)C(=O)N[C@H](CCN)C(=O)N[C@H](C(=O)N[C@@H](CCC(=O)O)C(=O)N[C@H](C(=O)N[C@@H](C(=O)N[C@@H](CO)C(=O)O)[C@@H](C)CC)[C@@H](C)CC)[C@@H](C)CC [Tridecaptin M, tridecaptin M] (X1-G[dDab]G[dS][dW]S[Dab][dDab]IEI[d(aIle)]S-OH)
1.37

---

assay.comment: in vitro
experimental.parameters: rat, liver microsomes, pH 7.4
quantity.kind: remaining at 1 h (%)
Answer with a number only, understood to be in %.

Which value of remaining at 1 h has been reported for O=C(O)Cc1ccccc1Nc1c(Cl)cccc1Cl [Diclofenac, reference compound] in the records?
67.2

---

assay.comment: in vitro
experimental.parameters: human, liver microsomes, pH 7.4
quantity.kind: remaining at 1 h (%)
The reply should contain only the number, in %.

Quick one: remaining at 1 h for O=C(O)Cc1ccccc1Nc1c(Cl)cccc1Cl [Diclofenac, reference compound] ?
11.6

---

tested.target: CYP2C9 (Homo sapiens, UniProt P11712)
Sequence (P11712 whole entry, canonical isoform): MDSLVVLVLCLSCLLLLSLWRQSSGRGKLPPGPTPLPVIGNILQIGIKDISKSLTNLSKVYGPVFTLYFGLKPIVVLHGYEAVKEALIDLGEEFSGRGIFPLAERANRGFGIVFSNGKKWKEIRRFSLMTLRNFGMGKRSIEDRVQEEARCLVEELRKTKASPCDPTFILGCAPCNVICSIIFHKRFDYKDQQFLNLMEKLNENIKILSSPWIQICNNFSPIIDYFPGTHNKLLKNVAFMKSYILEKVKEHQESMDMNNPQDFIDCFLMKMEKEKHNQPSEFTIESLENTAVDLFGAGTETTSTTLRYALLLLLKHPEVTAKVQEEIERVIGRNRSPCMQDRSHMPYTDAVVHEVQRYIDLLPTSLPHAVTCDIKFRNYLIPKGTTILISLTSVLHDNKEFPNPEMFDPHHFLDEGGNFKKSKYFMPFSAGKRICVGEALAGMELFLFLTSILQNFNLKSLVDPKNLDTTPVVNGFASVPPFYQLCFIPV
assay.comment: CYP inhibition assay, recombinant isoform, fluorescence
Format: biochemical
experimental.parameters: human; 3 µM; read-out: % inhibition CYP 2C9
quantity.kind: inhibition at 25 min, 3 µM (%)
Lab book: enter the figure in %, no units written.

Requested read-out: inhibition at 25 min, 3 µM. Entry: Nc1ccc(S(=O)(=O)Nc2ccnn2-c2ccccc2)cc1 [Sulfaphenazole, reference compound]
57.9

---

assay.comment: in vitro
experimental.parameters: rat, microsomes, pH 7.4
Where a SMILES comes first, the peptide text is derived from it. [ ]: non-standard residue; d: D form. The star is where a group is joined. d(aIle) = CC[C@H](C)[C@@H](N)C(=O)O; X1 = CC[C@H](C)CCCCC(=O)*; dDab = NCC[C@@H](N)C(=O)O; Dab = NCC[C@H](N)C(=O)O
quantity.kind: half-life

Request the reported half-life associated with CC[C@H](C)CCCCC(=O)NCC(=O)N[C@H](CCN)C(=O)NCC(=O)N[C@H](CO)C(=O)N[C@H](Cc1c[nH]c2ccccc12)C(=O)N[C@@H](CO)C(=O)N[C@@H](CCN)C(=O)N[C@H](CCN)C(=O)N[C@H](C(=O)N[C@@H](CCC(=O)O)C(=O)N[C@H](C(=O)N[C@@H](C(=O)N[C@@H](CO)C(=O)O)[C@@H](C)CC)[C@@H](C)CC)[C@@H](C)CC [Tridecaptin M, tridecaptin M] (X1-G[dDab]G[dS][dW]S[Dab][dDab]IEI[d(aIle)]S-OH)
> 2 h

---

tested.target: CYP3A4 (Homo sapiens, UniProt P08684)
Sequence (P08684 whole entry, canonical isoform): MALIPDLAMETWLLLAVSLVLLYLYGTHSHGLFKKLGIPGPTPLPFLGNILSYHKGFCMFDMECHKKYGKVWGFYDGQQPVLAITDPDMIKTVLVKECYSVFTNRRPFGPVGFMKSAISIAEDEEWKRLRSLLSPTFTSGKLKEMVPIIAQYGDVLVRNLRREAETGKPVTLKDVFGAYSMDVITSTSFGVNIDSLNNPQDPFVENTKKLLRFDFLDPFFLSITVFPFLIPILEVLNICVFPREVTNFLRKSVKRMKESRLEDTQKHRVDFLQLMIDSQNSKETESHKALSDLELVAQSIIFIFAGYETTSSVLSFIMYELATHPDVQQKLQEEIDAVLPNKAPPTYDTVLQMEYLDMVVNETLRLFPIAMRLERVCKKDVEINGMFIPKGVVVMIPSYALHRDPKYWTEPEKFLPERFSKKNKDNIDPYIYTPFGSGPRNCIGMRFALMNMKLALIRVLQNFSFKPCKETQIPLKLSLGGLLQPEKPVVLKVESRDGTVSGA
assay.comment: CYP inhibition assay, recombinant isoform, fluorescence
Type: biochemical
experimental.parameters: human
Where a SMILES comes first, the peptide text is derived from it. [ ]: non-standard residue; d: D form. The star is where a group is joined. d(aIle) = CC[C@H](C)[C@@H](N)C(=O)O; X1 = CC[C@H](C)CCCCC(=O)*; dDab = NCC[C@@H](N)C(=O)O; Dab = NCC[C@H](N)C(=O)O
quantity.kind: inhibition at 25 min, 0.03 µM

// inhibition at 25 min, 0.03 µM lookup, key: CC[C@H](C)CCCCC(=O)NCC(=O)N[C@H](CCN)C(=O)NCC(=O)N[C@H](CO)C(=O)N[C@H](Cc1c[nH]c2ccccc12)C(=O)N[C@@H](CO)C(=O)N[C@@H](CCN)C(=O)N[C@H](CCN)C(=O)N[C@H](C(=O)N[C@@H](CCC(=O)O)C(=O)N[C@H](C(=O)N[C@@H](C(=O)N[C@@H](CO)C(=O)O)[C@@H](C)CC)[C@@H](C)CC)[C@@H](C)CC [Tridecaptin M, tridecaptin M] (X1-G[dDab]G[dS][dW]S[Dab][dDab]IEI[d(aIle)]S-OH)
< 0%
